studyTarget: recombinant CES1 (Homo sapiens, UniProt P23141)
Sequence (P23141 18-567): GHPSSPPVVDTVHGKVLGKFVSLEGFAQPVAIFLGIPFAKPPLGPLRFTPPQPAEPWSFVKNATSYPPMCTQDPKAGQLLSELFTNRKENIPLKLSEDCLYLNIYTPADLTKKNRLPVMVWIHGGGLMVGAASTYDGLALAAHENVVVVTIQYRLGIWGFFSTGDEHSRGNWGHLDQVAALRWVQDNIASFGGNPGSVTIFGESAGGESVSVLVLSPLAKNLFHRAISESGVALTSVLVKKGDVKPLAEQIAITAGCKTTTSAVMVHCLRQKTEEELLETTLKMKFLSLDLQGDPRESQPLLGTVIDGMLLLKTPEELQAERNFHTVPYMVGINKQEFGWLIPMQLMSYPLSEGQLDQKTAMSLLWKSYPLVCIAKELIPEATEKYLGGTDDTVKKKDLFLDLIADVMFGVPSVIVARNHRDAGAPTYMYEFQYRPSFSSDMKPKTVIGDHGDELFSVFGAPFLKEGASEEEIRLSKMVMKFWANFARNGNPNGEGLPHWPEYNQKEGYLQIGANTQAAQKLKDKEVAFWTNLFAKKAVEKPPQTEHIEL
assayNotes: Inhibition of carboxylesterase activity of recombinant human CES1
Type: biochemical
recordedConditions: read-out: IC50, CES1 enzyme activity; data not shown
experimentalEndpoint: IC50

>>> measured("C[C@H](CCC(=O)O)[C@H]1CC[C@H]2[C@@H]3[C@H](O)C[C@@H]4C[C@H](O)CC[C@]4(C)[C@H]3C[C@H](O)[C@]12C [cholate]")
"~7 mM"

* * *

studyTarget: recombinant CES1 (Homo sapiens, UniProt P23141)
assayNotes: Inhibition of carboxylesterase activity of recombinant human CES1
Type: biochemical
recordedConditions: read-out: CES1 IC50; recombinant CES1; pNPV 500 μM; 15 min preincubation at 37°C
pIC50: −log10 of the molar value.
experimentalEndpoint: pIC50

>>> measured("CCCCCC1OC1C/C=C\\C/C=C\\C/C=C\\CCCC(=O)O (stereo not drawn)")
4.42
>>> measured("CCCCC/C=C/C=C1/C(=O)C=C[C@@H]1C/C=C\\CCCC(=O)O")
4.89
>>> measured("CCCCC/C=C\\CC1OC1C/C=C\\C/C=C\\CCCC(=O)O (stereo not drawn)")
4.57

* * *

# pIC50 listing for each entry below
studyTarget: recombinant CES1 (Homo sapiens)
assayNotes: Inhibition of carboxylesterase activity of recombinant human CES1
Assay type: biochemical
recordedConditions: CES1 IC50, recombinant CES1; pNPV 500 μM; 15 min preincubation at 37°C
pIC50: −log10 of the molar value.
experimentalEndpoint: pIC50

>>> measured("CCCCCCCCCCCCCCCC(=O)O [palmitic acid, Hexadecanoic acid]")
4.60
>>> measured("CCCCC/C=C\\C/C=C\\C/C=C\\CCCCC(=O)O [γ-linolenic acid, 6Z,9Z,12Z-Octadecatrienoic acid]")
4.72
>>> measured("CCCCCCCC/C=C\\CCCCCCCC(=O)O [oleic acid, 9Z-Octadecenoic acid]")
5.15
>>> measured("CCCCC/C=C\\C/C=C\\CCCCCCCC(=O)O [linoleic acid, 9Z,12Z-Octadecadienoic acid]")
5.05
>>> measured("CCCC/C=C\\CCCCCCCC(=O)O [myristoleic acid, 9Z-Tetradecenoic acid]")
4.92
>>> measured("CCCCCCCCCCCCCC(=O)O [myristic acid, Tetradecanoic acid]")
5.05
>>> measured("CCCCC/C=C\\C/C=C\\C/C=C\\C/C=C\\CCCC(=O)O [AA, 5Z,8Z,11Z,14Z-Eicosatetraenoic acid]")
5.70

* * *

studyTarget: carboxylesterase activity of THP1 cell lysates (Homo sapiens)
Sequence (P23141 18-567): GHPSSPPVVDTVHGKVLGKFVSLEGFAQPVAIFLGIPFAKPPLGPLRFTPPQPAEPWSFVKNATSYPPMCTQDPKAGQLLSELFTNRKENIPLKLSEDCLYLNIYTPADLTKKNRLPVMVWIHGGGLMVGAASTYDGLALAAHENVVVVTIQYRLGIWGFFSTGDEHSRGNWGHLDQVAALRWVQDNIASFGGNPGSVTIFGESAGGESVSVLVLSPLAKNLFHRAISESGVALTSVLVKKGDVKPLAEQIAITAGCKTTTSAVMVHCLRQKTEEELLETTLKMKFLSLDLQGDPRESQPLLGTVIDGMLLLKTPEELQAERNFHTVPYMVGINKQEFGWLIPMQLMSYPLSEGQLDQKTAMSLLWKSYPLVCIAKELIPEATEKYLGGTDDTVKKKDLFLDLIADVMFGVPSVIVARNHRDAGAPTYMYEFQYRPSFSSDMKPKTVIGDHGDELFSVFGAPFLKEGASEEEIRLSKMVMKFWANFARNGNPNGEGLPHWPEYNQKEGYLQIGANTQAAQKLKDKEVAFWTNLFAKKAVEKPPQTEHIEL
assayNotes: Inhibition of carboxylesterase activity of THP1 cell lysates
Format: biochemical
recordedConditions: Cell lysate IC50, THP1 cell lysate; pNPV 500 μM; 15 min preincubation at 37°C
Each item that follows carries a reported IC50.
experimentalEndpoint: IC50 (µM)

>>> measured("CCCC/C=C\\CCCCCCCC(=O)O [myristoleic acid, 9Z-Tetradecenoic acid]")
23
>>> measured("C[C@H](CC[C@@H]1OC1(C)C)[C@H]1CC[C@H]2[C@@H]3CC=C4C[C@@H](O)CC[C@]4(C)[C@H]3CC[C@]12C [epoxycholesterol, 24(S),25-epoxycholesterol]")
8.1
>>> measured("CCCCC/C=C\\C/C=C\\CCCCCCCC(=O)O [linoleic acid, 9Z,12Z-Octadecadienoic acid]")
20
>>> measured("CCCCC/C=C\\C/C=C\\C/C=C\\C/C=C\\CCCC(=O)O [AA, 5Z,8Z,11Z,14Z-Eicosatetraenoic acid]")
4
>>> measured("CCCCCCCC/C=C\\CCCCCCCC(=O)O [oleic acid, 9Z-Octadecenoic acid]")
11
>>> measured("CCCCC/C=C\\C/C=C\\C/C=C\\CCCCC(=O)O [γ-linolenic acid, 6Z,9Z,12Z-Octadecatrienoic acid]")
23
>>> measured("CCCCCCCCCCCCCC(=O)O [myristic acid, Tetradecanoic acid]")
28

* * *

studyTarget: recombinant CES1 (Homo sapiens)
assayNotes: Inhibition of carboxylesterase activity of recombinant human CES1
Assay type: biochemical
pIC50: −log10 of the molar value.
experimentalEndpoint: pIC50

>>> measured("C[C@@H](CO)CCC[C@@H](C)[C@H]1CC[C@H]2[C@@H]3CC=C4C[C@@H](O)CC[C@]4(C)[C@H]3CC[C@]12C [27-HC, 27-hydroxycholesterol]")
7.30

* * *

studyTarget: recombinant CES1 (Homo sapiens)
Sequence (P23141 18-567): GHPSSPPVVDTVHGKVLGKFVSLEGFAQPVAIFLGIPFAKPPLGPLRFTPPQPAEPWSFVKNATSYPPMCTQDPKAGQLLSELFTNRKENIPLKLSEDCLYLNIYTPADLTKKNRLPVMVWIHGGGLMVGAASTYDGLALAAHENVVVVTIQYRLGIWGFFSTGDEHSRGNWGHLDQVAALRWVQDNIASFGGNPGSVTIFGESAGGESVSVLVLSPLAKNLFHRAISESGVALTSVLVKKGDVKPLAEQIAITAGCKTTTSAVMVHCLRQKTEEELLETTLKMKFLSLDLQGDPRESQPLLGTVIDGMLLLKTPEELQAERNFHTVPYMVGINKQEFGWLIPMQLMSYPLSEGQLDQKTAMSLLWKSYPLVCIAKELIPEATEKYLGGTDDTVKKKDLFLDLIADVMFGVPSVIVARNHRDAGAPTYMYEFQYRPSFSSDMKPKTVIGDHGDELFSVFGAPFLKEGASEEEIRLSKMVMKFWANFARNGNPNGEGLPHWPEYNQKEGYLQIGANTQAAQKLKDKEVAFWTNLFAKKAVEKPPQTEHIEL
assayNotes: Inhibition of carboxylesterase activity of recombinant human CES1
Assay type: biochemical
recordedConditions: Kiapp, recombinant CES1, ester substrate 4-MUBA; data not shown
experimentalEndpoint: Ki

>>> measured("C[C@@H](CO)CCC[C@@H](C)[C@H]1CC[C@H]2[C@@H]3CC=C4C[C@@H](O)CC[C@]4(C)[C@H]3CC[C@]12C [27-HC, 27-hydroxycholesterol]")
"10.4 nM"

* * *

studyTarget: recombinant CES1 (Homo sapiens, UniProt P23141)
assayNotes: Inhibition of carboxylesterase activity of recombinant human CES1
Type: biochemical
pKi: −log10 of the molar value.
experimentalEndpoint: pKi

>>> measured("CCCCC/C=C\\C/C=C\\C/C=C\\C/C=C\\CCCC(=O)O [AA, 5Z,8Z,11Z,14Z-Eicosatetraenoic acid]")
5.77

* * *

studyTarget: recombinant CES1 (Homo sapiens, UniProt P23141)
assayNotes: Inhibition of carboxylesterase activity of recombinant human CES1
Assay type: biochemical
recordedConditions: CES1 IC50, recombinant CES1; pNPV 500 μM; 15 min preincubation at 37°C
experimentalEndpoint: IC50

>>> measured("CCCCCCCCCCCCCCCCCC(=O)O")
"> 100 µM"
>>> measured("CCCCC[C@H](O)/C=C/[C@@H]1[C@@H](C/C=C\\CCCC(=O)O)[C@@H](O)C[C@H]1O")
"> 100 µM"
>>> measured("CCCCC[C@H](O)/C=C/[C@H]1[C@H](O)CC(=O)[C@@H]1C/C=C\\CCCC(=O)O [Prostaglandin E2]")
"> 100 µM"
